target: caspase-1 (Homo sapiens); test: Recombinant caspase enzyme inhibition, fluorogenic substrate Ac-YVAD-AMC; conditions: Reversible Inhibitor
Sequence (P29466 120-297 limits assumed): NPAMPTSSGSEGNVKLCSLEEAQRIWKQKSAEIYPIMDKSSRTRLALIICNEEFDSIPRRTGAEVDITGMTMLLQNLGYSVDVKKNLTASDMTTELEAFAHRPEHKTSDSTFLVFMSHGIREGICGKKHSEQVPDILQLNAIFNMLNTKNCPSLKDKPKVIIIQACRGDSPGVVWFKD
Sequence (P29466 317-404 limits assumed): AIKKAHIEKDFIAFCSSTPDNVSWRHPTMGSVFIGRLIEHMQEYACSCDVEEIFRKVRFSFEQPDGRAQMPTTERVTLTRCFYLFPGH
pKi: −log10 of the molar value.
Measure: pKi

Here's what some known entries look like.
Compound: CC(C)[C@H](NC(=O)CCC(=O)O)C1=NOC(C)(C(=O)N[C@@H](CC(=O)O)C(=O)CN2CCCC2)C1 (stereo partly drawn)
Target: caspase-1 (Homo sapiens)
pKi: 4.19
--
Compound: CC(C)[C@H](NC(=O)CCC(=O)O)C1=NOC(C)(C(=O)N[C@@H](CC(=O)O)C(=O)COc2ccc3ccccc3c2)C1 (single isomer, unassigned) [Compound 81]
Target: caspase-1 (Homo sapiens)
pKi: 4.57
--
Compound: CCCC1(C(=O)N[C@@H](CC(=O)O)C(=O)COc2ccccc2)CC([C@@H](NC(=O)CCC(=O)O)C(C)C)=NO1 (mixture of isomers)
Target: caspase-1 (Homo sapiens)
pKi: 6.01

(1) CC(C)[C@H](NC(=O)CCC(=O)O)C1=NOC(C)(C(=O)N[C@@H](CC(=O)O)C(=O)COc2ccccc2)C1 (mixture of isomers)
(2) CC(C)[C@H](NC(=O)c1ccc2ccccc2c1)C1=NOC(C(=O)N[C@@H](CC(=O)O)C(=O)COc2ccccc2)C1 (stereo partly drawn)
(3) CC(C)[C@H](NC(=O)CCC(=O)O)C1=NOC(C)(C(=O)N[C@@H](CC(=O)O)C(=O)COc2ccc3ccccc3c2)C1 (single isomer, unassigned) [Compound 82]
Kindly order the items shown according to pKi, from the highest value down. Please express your ranking as an ordered list of the labels.
2, 1, 3
(2: 7.72, 1: 6.75, 3: 6.28)

All figures here come from patent US6747050B1.
